All values here come from ChEMBL document CHEMBL4837265.

Items are presented alongside their recorded pEC50.
- testedTarget: Glucocorticoid receptor (Rattus norvegicus, UniProt P06536)
- Sequence (P06536 whole entry): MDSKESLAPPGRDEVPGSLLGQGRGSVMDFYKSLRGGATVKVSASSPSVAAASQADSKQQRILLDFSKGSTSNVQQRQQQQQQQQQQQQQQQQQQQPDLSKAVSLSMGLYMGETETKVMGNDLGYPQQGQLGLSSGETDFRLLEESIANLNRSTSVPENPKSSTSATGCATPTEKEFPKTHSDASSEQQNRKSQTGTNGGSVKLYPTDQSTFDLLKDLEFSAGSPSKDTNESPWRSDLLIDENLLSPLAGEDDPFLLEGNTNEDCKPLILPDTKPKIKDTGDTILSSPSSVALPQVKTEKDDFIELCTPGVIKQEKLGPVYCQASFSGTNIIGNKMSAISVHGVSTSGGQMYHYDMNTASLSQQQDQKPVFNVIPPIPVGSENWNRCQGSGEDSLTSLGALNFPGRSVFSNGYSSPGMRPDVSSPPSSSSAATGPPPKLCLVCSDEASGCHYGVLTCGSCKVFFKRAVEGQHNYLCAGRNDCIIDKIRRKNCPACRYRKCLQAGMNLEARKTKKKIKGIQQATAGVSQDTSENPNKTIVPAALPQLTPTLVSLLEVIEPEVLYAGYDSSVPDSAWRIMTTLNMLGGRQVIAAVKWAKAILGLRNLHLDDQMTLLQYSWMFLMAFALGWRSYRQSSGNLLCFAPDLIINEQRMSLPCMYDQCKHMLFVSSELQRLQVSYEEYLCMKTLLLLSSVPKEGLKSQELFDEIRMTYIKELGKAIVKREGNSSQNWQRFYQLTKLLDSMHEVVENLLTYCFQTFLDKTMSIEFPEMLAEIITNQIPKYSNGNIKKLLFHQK
- assayText: Agonist activity at glucocorticoid receptor in rat INS-1 832/13 cells transfected with 3XGRE-promoter luciferase plasmid construct assessed as induction of receptor transactivation by luciferase reporter gene assay
pEC50 is a log-scale quantity: -log10 of the concentration expressed in molar.

Completed entries (count: 7):
COc1ccc(-n2ncc3c2C=C2CCC[C@H]([C@@H](O)c4ccsc4)[C@@]2(C)C3)cc1 :: 5.00
COc1ccc(-n2ncc3c2C=C2CCC[C@H]([C@@H](O)c4ccc(F)cc4)[C@@]2(C)C3)cc1 :: 4.80
CC(C)(C)[C@H](O)[C@H]1CCCC2=Cc3c(cnn3-c3ccc(F)cc3)C[C@@]21C :: 6.10
Cc1ccc(-n2ncc3c2C=C2CCC[C@H]([C@H](C)O)[C@@]2(C)C3)cc1 :: 5.80
COc1cc([C@H](O)[C@H]2CCCC3=Cc4c(cnn4-c4ccc(F)cc4)C[C@@]32C)cc(F)c1F :: 7.20
Cc1ccc(-n2ncc3c2C=C2CCC[C@H](C(C)(O)c4ccccc4)[C@@]2(C)C3)cc1 (single isomer, unassigned) :: 5.90
Cc1ccc(-n2ncc3c2C=C2CCC[C@H](C(C)(O)c4ccc(F)cc4)[C@@]2(C)C3)cc1 (single isomer, unassigned) :: 6.50

For COc1ccc(-n2ncc3c2C=C2CCC[C@H]([C@H](C)O)[C@@]2(C)C3)cc1 the compound record lists pEC50 as 6.60

---

- testedTarget: Glucocorticoid receptor (Rattus norvegicus, UniProt P06536)
- Sequence (P06536 whole entry): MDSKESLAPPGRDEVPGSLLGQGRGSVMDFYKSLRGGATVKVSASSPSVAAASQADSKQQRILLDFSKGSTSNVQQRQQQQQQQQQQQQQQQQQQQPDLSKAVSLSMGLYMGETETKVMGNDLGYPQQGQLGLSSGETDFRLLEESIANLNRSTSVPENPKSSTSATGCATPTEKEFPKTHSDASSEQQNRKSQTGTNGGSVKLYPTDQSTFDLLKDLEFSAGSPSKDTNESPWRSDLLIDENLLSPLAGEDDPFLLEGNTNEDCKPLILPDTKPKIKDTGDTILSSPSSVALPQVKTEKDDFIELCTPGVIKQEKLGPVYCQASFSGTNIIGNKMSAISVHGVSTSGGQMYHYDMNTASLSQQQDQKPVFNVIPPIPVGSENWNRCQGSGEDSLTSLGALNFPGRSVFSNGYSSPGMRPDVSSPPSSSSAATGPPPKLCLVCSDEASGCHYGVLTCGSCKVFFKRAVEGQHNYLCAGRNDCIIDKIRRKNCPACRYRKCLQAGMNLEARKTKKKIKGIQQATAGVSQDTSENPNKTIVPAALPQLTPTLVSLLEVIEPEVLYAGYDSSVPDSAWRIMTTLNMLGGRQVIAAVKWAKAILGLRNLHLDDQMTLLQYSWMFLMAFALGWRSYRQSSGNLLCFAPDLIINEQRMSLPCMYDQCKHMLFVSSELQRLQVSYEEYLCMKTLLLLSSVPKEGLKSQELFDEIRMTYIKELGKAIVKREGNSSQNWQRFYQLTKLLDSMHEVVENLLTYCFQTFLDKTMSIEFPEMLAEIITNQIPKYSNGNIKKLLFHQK
- assayText: Agonist activity at glucocorticoid receptor in rat INS-1 832/13 cells transfected with 3XGRE-promoter luciferase plasmid construct assessed as induction of receptor transactivation by luciferase reporter gene assay
# EC50 annotations
Dear colleague, please send the value followed by its unit.

Solved entries:
Cc1ccc(-n2ncc3c2C=C2CCC[C@H](C(C)(O)c4ccsc4)[C@@]2(C)C3)cc1 (single isomer, unassigned) :: 1580 nM
COc1ccc(-n2ncc3c2C=C2CCC[C@H](C(C)(O)c4ccccc4)[C@@]2(C)C3)cc1 (single isomer, unassigned) :: 5010 nM
C[C@H](O)[C@H]1CCCC2=Cc3c(cnn3-c3ccc(F)cc3)C[C@@]21C :: 63.1 nM

// assay Glucocorticoid receptor (Rattus norvegicus, UniProt P06536), entry COc1ccc(-n2ncc3c2C=C2CCC[C@H](C(C)(C)O)[C@@]2(C)C3)cc1 , EC50 value = 79.4 nM
